# Method: Tissue distribution and accumulation of siphonaxanthin and its metabolites in mice after 16-day dietary supplementation (HPLC)
# Type: in vivo
# Assay context: male, mouse, oral, 65.79 nmol/g of diet; Plasma; ICR mice, 16-day diet with siphonaxanthin 65.79 nmol/g; mean ± SEM, n = 4
Quantity kind: concentration at 16 days (nM)
Answers are plain numbers, in nM.

Value of concentration at 16 days reported for the compound CC1=C[C@H](O)CC(C)(C)[C@H]1/C=C/C(C)=C/C=C/C(C)=C/C=C/C=C(C)/C=C/C=C(\CO)C(=O)CC1=C(C)C[C@@H](O)CC1(C)C [Siphonaxanthin] is 18.3
